# Assay details: yeast display, Sf9 membrane polyspecificity reagent, FACS + sequencing; frameworks hold sequencing errors
Experimental readout: polyreactivity (PSR sort gate)

[[record]]
input_sequence = "QVQLVESGGGLVQEGGSLRLSCAASGRIFQWNAMGWYRQAPGKERELVATISSRGGSTYYADSVKGRFTISRDNAKNTVYLQMNSLKPEDTAVYYCAARYYAKYRSYDYWGQGTQVTVSS"
observed_measurement = "high polyreactivity"

[[record]]
input_sequence = "QVQLVESGGGLVQAGGILRLSCAASGRTFYYYAMGWYRQAPGKERELVAAISWGGGRTYYADSVKGRFTISRDNAKNTVYLHMNSLKPEDTAVYYCDTTAYNGYDYWGQGTQVTVSS"
observed_measurement = "high polyreactivity"

[[record]]
input_sequence = "QVQLQESDGGLVQAGGSLRLTCAASGSISPQYYMGWYRQAPGQEREFVAISKGTTTYYADSVKGRLTISRVNAKNTVYLQMNSLKPEDTAVYCCAAGRWLQKVHAYWDQGTQVTVSS"
observed_measurement = "low polyreactivity"

[[record]]
input_sequence = "QVQLVESGGGLVQAGGSLRLSCAASGFIFGYYAMGWYRQAPGKERELVAAISWSGGSTYYADSVKGRFTISRDNAKNTVYLQMNSLKPEDTAVYYCATASPSTRYGRLGDYWGQGTQVTVSS"
observed_measurement = "low polyreactivity"

[[record]]
input_sequence = "QVQLVESGGGLVQAGGSLRLSCAASGRIFGRYTMGWYRQAPGKGRELDAAISDSGDSTYADSVKGRFTISRDNAKNSVYFQMNSLKPEDTAVYFCNAQSGSFAGHEYDYWGQGTQLTVSS"
observed_measurement = "low polyreactivity"

[[record]]
input_sequence = "QVQLVESGGGLVPAGGSLRLSCAASGRIFRGYAMGWYRQAHGKEREFVAAITKNGGTTYYADSVKGRFTISRDNAKNTVYLQMNSLKPEDTAVYYCNKDGYPWPPNLDYWGQGTQVTVSS"
observed_measurement = "low polyreactivity"

[[record]]
input_sequence = "QVQLVESGGGLVQAGGSLRLSCASSGSIFVANAMGWYRQAPGKERELVAAISVRGGRTYYADSVKGRFTISRDNAKNTVYLQMNSLKPEDTAVYYCARVLRSDVADYDYWGQGTQVSVSS"
observed_measurement = "high polyreactivity"

[[record]]
input_sequence = "QVQLVESGGGLVQAGGSLRLSCAASGRISGGYDMGWYRQAPGKERELVAAITNTGGITYYADSVKGRFTISRDNAKNTVYLQMNSLKPEDTAVYYCNAEYEISFYVLFDYWGQGTQVTVSS"
observed_measurement = "low polyreactivity"

[[record]]
input_sequence = "QVQLVESGGGLVQAGGSLRLSCAASGYTFYAYAMGWYRQAPGKERELVATISSGGRTYYADSVKGLFTISRDNAKNTVYLQMNSLKPEDTAVYYCAARKTRYISRFDYWGQGTQVTVSS"
observed_measurement = "high polyreactivity"

[[record]]
input_sequence = "QVQLVESGGGLVQAGGSLRLSCAASGGTFFGYAMGWYRPAPGKERELVAAISGSGGRTYYADSVKGRFTISRDNAKNTVYLQMNSLKPEDTAVYYCAADATHETYYPFYYWGQGTQVTVSS"
observed_measurement = "high polyreactivity"


Could you now look at the following sequence, please?
Request: Endpoint output: polyreactivity (PSR sort gate) of QVQLVESGAGLVQAGGSLRFSCAASGSIFDHYVMGWYRQAPGKEREFVAAIPSGDRTNYADSVKGRFTISRDNANNTVYLQMNSLKPEDTAVYYCNADYQYYFYYTTCYYDYDYWGQGTPVTVSS . Value?
Response: low polyreactivity

----------
# Assay details: yeast display, Sf9 membrane polyspecificity reagent, FACS + sequencing; frameworks hold sequencing errors
Experimental readout: polyreactivity (PSR sort gate)

Recorded results for 6 sequences are shown here.
[[record]]
input_sequence = "QVQLVESGGGLVQAGGSLRLSCAASGFTFRRYAMGRYRQAPGKERELVAAISRSTGSTYYADSVKGRFSLSRDNAKNSVYLQMNSLKPEDTAVFYCNVAGSARVNTLVLSYEYWGQGSQVTVSS"
observed_measurement = "high polyreactivity"

[[record]]
input_sequence = "QVQLVESGGGLVQAGGSLRLSCAASGSIFYTYVMGWYRQAPGKERELVAAISGTGGRTYYADSVKGRFTISRDNAKNTVYLQMTSLKPEDTAVYYCATRAYHKGFYRITYYYWGQGTQVTVSS"
observed_measurement = "high polyreactivity"

[[record]]
input_sequence = "QVKLVESGGGLVQAGGSLRLSCAASGGTFGSNAMGWYRQAPGKERHLVAAISTTGGTTYYADSVKGRFTISRDNAKNTVYLQMNSLKPEDTAVYYCAKDGYVYGDWYTYAYDYWGQGTQVTVSS"
observed_measurement = "low polyreactivity"

[[record]]
input_sequence = "QVQLVESGGGLVQAGGSLRLSCAASGIIFGGYAMGWYRQAPGKERELVAAITRSGGSTYYADSVKGRFTISRDNAKNTVYLQMNSLKPEDTAVYYCAAVPYRKHSYPFRLNYWGQGTQVTVSS"
observed_measurement = "high polyreactivity"

[[record]]
input_sequence = "QVQLVESGGGLVQAGGSLRLSCAASGRIFYVYAMGWYRQAPGKERELVAAITISGGSTYYADSVKGRFTISRDNAKNTVYLQMNSLKPEDTAVYYCAAGTQAHAYVVRPIEMDYWGQGTQVTVSS"
observed_measurement = "low polyreactivity"

[[record]]
input_sequence = "QVQLVESGGGLVQAGGSLRLSCAASGSTFVSNAMGWYRQAPGKERELVAAISSSGGRTSYADSVKGRFTISRDNAKNTVYLQMNSLKPEDTAVYYCAARFKSVDYVQYYYWGQGTQVTVSS"
observed_measurement = "low polyreactivity"


Request: Endpoint output: polyreactivity (PSR sort gate) of QVQLVESGGGLVQAGGSLRLSCAASGSTFGYYAMGWYRQAPGKERELVAAISSGGSTNYADSVKGRFTISRDNAKNTVYLQMNSLKPEDTAVYYCNVGYIFVSFRYDYWGQGTQVTVSS . Value?
Response: low polyreactivity

Request: Follow-up item: QVQLVESGGGLVQAGGSLRLSCAASGSIFVVNGMGWYRQAPGKERELVAAITGDGTTYYADSVKGRFTISRDNAKNTVYLQMNSLKPEDSAVYYCAALFTPALSEYDYWGQGTQVTVSS
Response: high polyreactivity

Request: Follow-up item: QLQLVESGGGLVQAGGSLRLSCAASGYIFGWYAMGWYRQAPGKERELVATIDWSGDSTYYADSVKGRFTISRDNAKNTVYLQLNSLKPEATAVYYCAVGYSYYPSDEFDYWGQGTQVTVSS
Response: low polyreactivity

Request: Follow-up item: QVQLVESGGGLVQAGGSLRLSCAASGCIFASYPMGWYRPAPGTERELVAAISRAGSTYYADSVKGRFTISRDNAKNTDYLQMNSLKPEDTAVYYCNADFNWGYNYWGQGTQVTGSS
Response: high polyreactivity

Request: Follow-up item: QVQIVESGGGLVQAGGSLRLSCGASGRIFYNYALGWYRQAPGKERELVAAISGSGGSTYYADSVKGRFTISRDNAKNTVYLQMNSLKPEDTAVYYCSTSGPQYYSRNFDYWGQGTQVTVSS
Response: low polyreactivity

----------
# Assay details: yeast display, Sf9 membrane polyspecificity reagent, FACS + sequencing; frameworks hold sequencing errors
Experimental readout: polyreactivity (PSR sort gate)

[[record]]
input_sequence = "KVQLVESGGSLVQAGGSLRLSSAASGRIITGYAMGWYRQAPGKEWELVAAITGSCVSTYYADSVKGRFTISRDNSKNTVYLQMNSLKPEDTAVYYCAARRYYGYVHWGQGTQVTVSS"
observed_measurement = "high polyreactivity"

[[record]]
input_sequence = "QVQLVESGGGLVQAGGSLRLSCAASGRTLFRYAMGWYRQAPGKERELVAAISRSGGTTYYADSVKGRFTISRDNAKNTVYLQMNSLKPEDTAVYYCAARFVLRRDYGYWGQGTQVTVSS"
observed_measurement = "high polyreactivity"

[[record]]
input_sequence = "QVQLVESGGGLVQAGGSLRLSCAASGRTFGQNTMGWYRQAPGIERELVAAINWSGGSTYYADSVKGRFTISRDIAKNTVYVQMNSLKPEDTAVYYCAVRGYWGQGTQVTVSS"
observed_measurement = "low polyreactivity"

[[record]]
input_sequence = "QVQLVESRGGLVQAGGSLRLSCAASRRIFVRNAIGWYIQEPGKERELVAAISSSGGPTYYADSVKGRFTISRDNAKNTVYLQMNSLKPEDTAVYYCAASSSNKEYDYWGQGTQVTVSS"
observed_measurement = "high polyreactivity"

[[record]]
input_sequence = "QVQLVESGGGLVQAGGSLRLSCAASGFTFIRYAMGCYRQAPGKERELVAAIRGTGTSTYYADSVKGRFTISRDNAKNTVYLQMNSLKPEDTAVYYCNKVAGRSPYTRYDYWGQGTQVTVSS"
observed_measurement = "low polyreactivity"

[[record]]
input_sequence = "QVQLVESGGGLVQAGGSLRLSCAASGIIFITYAMGWYRQAPGKERELVAAITNSGGGTYYADSVKGRFTISRDNAKNTVYLQMNILKPEATAVYYCAARKTAYGYRYDYWGQGTQVTVSS"
observed_measurement = "high polyreactivity"


Could you now look at the following sequence, please?
Request: Endpoint output: polyreactivity (PSR sort gate) of QVQLVESGGGLVQAGGSLRLSCAASGSIFSWYAMGWYRQAPGKERELVAAISSRGGSTYYADSVKGRFTISRDTAKNTVYLQMYSLKPEDTAVYYCNTTYGYSTYWASGKYDYWGQGTQVTVSS . Value?
Response: low polyreactivity
